Give measured GI50 for each item. Keep answers brief.
System: CHLA-99
Assay: MTS GI50, Myc-dependent panel
Format: cell-based
Conditions: CHLA-99, 72 h; read-out: GI50
Answer format: numeric, nM implied, no suffix.

Query: Quick one: give measured GI50 for CCNCCCn1c2c(c3cc(OC)c(OC)cc3c1=O)C(=O)c1cc3c(nc1-2)OCO3
Result: 58

Query: Quick one: give measured GI50 for COc1cc2c3c(n(CCCNCCO)c(=O)c2cc1OC)-c1cc2c(cc1C3=O)OCO2
Result: 77

Query: Quick one: give measured GI50 for COc1cc2c3c(n(CCCn4ccnc4)c(=O)c2cc1OC)-c1nc2c(cc1C3=O)OCO2
Result: 265

Query: Quick one: give measured GI50 for COc1cc2c3c(n(CCCNC(C)C)c(=O)c2cc1OC)-c1nc2c(cc1C3=O)OCO2
Result: 89

Query: Quick one: give measured GI50 for CC[C@@]1(O)C(=O)OCc2c1cc1n(c2=O)Cc2cc3ccccc3nc2-1
Result: 4

Query: Quick one: give measured GI50 for COc1cc2c3c(n(CCCN4CCOCC4)c(=O)c2cc1OC)-c1nc2c(cc1C3=O)OCO2
Result: 526

Query: Quick one: give measured GI50 for COc1cc2c3c(n(CCCNCCO)c(=O)c2cc1OC)-c1nc2c(cc1C3=O)OCO2
Result: 31

Query: Quick one: give measured GI50 for COc1cc2c3c(n(CCCN4CCOCC4)c(=O)c2cc1OC)-c1cc2c(cc1C3=O)OCO2
Result: 773

---

Give measured GI50 for each item. Keep answers brief.
Tested on: SF-539 (CNS)
Assay: NCI-60 cytotoxicity assay
Format: cell-based
Conditions: Homo sapiens; SF-539 CNS; 48 h, sulforhodamine B; read-out: Comparative Cytotoxicity GI50, CNS SF-539
Answer format: numeric, nM implied, no suffix.

Query: Quick one: give measured GI50 for COc1cc2c3c(n(CCCNC4CCC4)c(=O)c2cc1OC)-c1cc2c(cc1C3=O)OCO2
Result: 1050

Query: Quick one: give measured GI50 for COc1cc2c3c(n(CCCNCC4CC4)c(=O)c2cc1OC)-c1cc2c(cc1C3=O)OCO2
Result: 760

Query: Quick one: give measured GI50 for COc1cnc2c(c1)C(=O)c1c-2n(CCCn2ccnc2)c(=O)c2cc(OC)c(OC)cc12
Result: 53

Query: Quick one: give measured GI50 for COc1cc2c3c(n(CCCNC4CCCCC4)c(=O)c2cc1OC)-c1cc2c(cc1C3=O)OCO2
Result: 7740

Query: Quick one: give measured GI50 for COc1cnc2c(c1)C(=O)c1c-2n(CCCNCCO)c(=O)c2cc(OC)c(OC)cc12
Result: 490

Query: Quick one: give measured GI50 for COc1cc2c3c(n(CCCN4CCC[C@H]4C(N)=O)c(=O)c2cc1OC)-c1cc2c(cc1C3=O)OCO2
Result: 30

---

Test system: Caco-2 cells
Assay: Caco-2 permeability
Format: in vitro ADME
Settings: Caco-2
MEASURED PARAMETER: Recovery (%)BL-AP
Answer format: numeric, % implied, no suffix.

Query: Quick one: give measured Recovery (%)BL-AP for COc1cc2nc(N3CCN(C(=O)c4ccco4)CC3)nc(N)c2cc1OC [Prazosin]
Result: 94.99

Query: Quick one: give measured Recovery (%)BL-AP for COc1cc2c3c(n(CCCNC(C)C)c(=O)c2cc1OC)-c1nc2c(cc1C3=O)OCO2 [G103]
Result: 75.54

Query: Quick one: give measured Recovery (%)BL-AP for CCNCCCn1c2c(c3cc(OC)c(OC)cc3c1=O)C(=O)c1cc3c(nc1-2)OCO3 [G104]
Result: 81.64
